tested on: OVCAR-5; test: NCI tumour cell line growth inhibition, 48 h
Activity calls are given as the source filed them. Cut-off read from the data, not from the text of the source: active = GI50 up to about 1.1 µM and inactive = higher.
Labels: 1 = active, -1 = inactive

COMPOUND | TGT | CLASS_ASSIGNMENT
CCOC(=O)/C(=C\c1ccc(O)c(OC)c1)C(=O)c1ccccc1 | OVCAR-5 | -1
N#Cc1c(-c2ccc(Cl)cc2)c2c(n(C3OC(CO)C(O)C(O)C3O)c1=S)CCCC2 (stereo not given) | OVCAR-5 | -1
Nc1ccc(C(=O)NN2C(=O)C(Cl)C2c2ccccc2)cc1 (stereo not given) | OVCAR-5 | -1
COc1ccc2c(c1C)C(=O)C(O)(CC=C(C)C)O2 (stereo not given) | OVCAR-5 | -1
Oc1ncc(N(CCCl)CCCl)c(O)n1 [URACIL MUSTARD] | OVCAR-5 | -1
O=C(Nc1ccc(F)cc1)c1cc2ccc(O)cc2o/c1=N\c1ccccc1F | OVCAR-5 | -1
CCCCN(CCCC)CC(O)c1cc(-c2ccc(Cl)c(Cl)c2)nc2c(Cl)cc(Cl)cc12 (stereo not given) | OVCAR-5 | -1
OC1CSc2nc3ccccc3n2C1 (stereo not given) | OVCAR-5 | -1
O=C1NC(=O)C2(CCCCCC2)N1 | OVCAR-5 | -1
COc1cc(C2SCCCCCCCCCCSC(c3ccc(O)c(OC)c3)SCCCCCCCCCCS2)ccc1O (stereo not given) | OVCAR-5 | -1
COc1cccc2c1CCc1cc3c(N)nc(N)nc3nc1-2 | OVCAR-5 | -1
O=C(/C=C/c1csc(-c2ccccc2)n1)NCc1ccc(C(=O)NCCc2ccccc2)cc1 | OVCAR-5 | -1
Brc1ccc2[nH]cc(-c3csc(-c4ccccn4)n3)c2c1 | OVCAR-5 | -1
COC(=O)C1C/C(=C/N(C)C)C(=S)N1 (stereo not given) | OVCAR-5 | -1
CC(C)(C)OC(=O)N(O)[C@@H]1C=C[C@H](n2cnc3c(N)ncnc32)C1 | OVCAR-5 | -1
O=C1C2CCCC2N1Cc1ccccc1 (stereo not given) | OVCAR-5 | -1
Cc1nccc2c1cnc1ccnn12 | OVCAR-5 | -1
Cc1nc2c(n1CCCl)C(=O)c1ccccc1C2=O | OVCAR-5 | -1
O=S1(=O)c2ccccc2N(c2ccccc2)c2nnnn21 | OVCAR-5 | -1
O=C(NCCCCCCO)c1cccc2cc3ccccc3nc12 | OVCAR-5 | -1
C#CCn1c2c(c3ccccc3c1=O)C(=O)c1ccccc1-2 | OVCAR-5 | -1
COC(=O)C(C)(Cc1ccc2c(c1)nnn2C(C)=O)NC(C)=O (stereo not given) | OVCAR-5 | -1
C=C1CN(C(=O)c2cc3cc(OC)c(OC)c(OC)c3[nH]2)c2cc([N+](=O)[O-])ccc21 | OVCAR-5 | -1
O=C(Cn1c2ccc(Br)cc2c2nc3ccccc3nc21)NNC(=S)NC1CCCCC1 | OVCAR-5 | -1
CC(C)CCc1c(Cl)nc(Cl)nc1Cl | OVCAR-5 | -1
Nc1ncnc2c1ncn2CCOC(c1ccccc1)P(=O)(O)O (stereo not given) | OVCAR-5 | -1
O=S(=O)(O)C(c1ccccc1)C(O)c1ccccc1 (stereo not given) | OVCAR-5 | -1
O=C(CCCN1CCc2[nH]c3cc(F)ccc3c2C1)c1ccc(F)cc1 | OVCAR-5 | -1
CC(=O)Nn1cnc(C(=N)C#N)c1N | OVCAR-5 | -1
C=CCNC(=O)ON1C(=O)CCC1=O | OVCAR-5 | -1
CC1(C)C(=O)/C=C\C(=O)C(C)(C)C2=CC=C(O2)C(C)(C)C(=O)C(Br)C(Br)C(=O)C(C)(C)C2=CC=C1O2 (stereo not given) | OVCAR-5 | -1
COC(=O)C(CCC(=O)CCl)N1C(=O)c2ccccc2C1=O (stereo not given) | OVCAR-5 | -1
NC(c1ccccc1)(C(F)(F)F)P1(=O)OC(=O)c2ccccc2O1 (stereo not given) | OVCAR-5 | -1
O=C1c2ccccc2C2(O)c3cc4ccccc4cc3OC12O (stereo not given) | OVCAR-5 | -1
CN1CCN(Cn2nc(COc3ccccc3Cl)n(/N=C/c3ccc(-c4ccc(Cl)cc4Cl)o3)c2=S)CC1 | OVCAR-5 | -1
O=C1CCCCC1CN1CCCC1 (stereo not given) | OVCAR-5 | -1
COc1ccc2c(c1O)[C@@]13CCCC=C1[C@@H](C2)N(C)CC3 | OVCAR-5 | -1
Fc1cccc(F)c1C1SCc2nc3ccc(Cl)cc3n21 (stereo not given) | OVCAR-5 | -1
CCOP(=O)(Nc1ccc2oc(=O)c3ccccc3c2c1)OCC | OVCAR-5 | -1
CC(=O)C1C(=O)C(=O)N(c2ccc(Br)cc2)C1=O (stereo not given) | OVCAR-5 | -1
COC(=O)C1=C(SC)SC2(C(=O)OC)C3C=C(C)C4C(N13)C42C(=O)OC (stereo not given) | OVCAR-5 | -1
CCOC(=O)C(Cc1ccc(N(CCCl)CCCl)cc1)NC(=O)C(Cc1ccccc1)NC(C)=O (stereo not given) | OVCAR-5 | 1
CC[C@]1(c2ccc3c(c2)OCO3)C=[N+]([O-])O[C@H](OC2CCCC2(c2ccccc2)c2ccccc2)[C@@H]1OC(C)=O (stereo not given in full) | OVCAR-5 | -1
Cc1ccc(C2=C(c3ccc(C)cc3)C(c3ccc(C)cc3)=C(c3ccc(C)cc3)C2=O)cc1 | OVCAR-5 | -1
CN(C)c1ccc(N=O)c(O)c1.CN(C)c1ccc(N=O)c(O)c1.[SiH4] | OVCAR-5 | -1
